Reference source: ChEMBL document CHEMBL1131063

target-entity: Phospholipase A2 (Apis mellifera)
measurement-protocol: Inhibitory activity against bee secretory Phospholipase A2 enzyme when pre-incubated with Hydroxylamine for 60 minutes
property: inhibition (%)
One number for each entry, in %.

Sample records with inhibition:
CC1=C(CC/C(C)=C/CCC2=CC[C@H](C3=CC(=O)O[C@H]3O)O[C@H]2O)C(C)(C)CCC1 :: 43.1
CC(C)=CCC/C(C)=C/CC/C(C)=C/CC1=CCC(C2=CC(=O)OC2O)OC1 (centres undefined) :: 65.1
CC(C)=CCC/C(C)=C/CC/C(C)=C/CC1=CCC(C2=CC(=O)OC2O)OC1O (centres undefined) :: 71.5

Moving on to another molecule below.
Problem: # inhibition lookup, item C=C1CCC[C@H]2[C@](C)(CCC3=CCC(C4=CC(=O)OC4O)OC3)[C@H](C)CC[C@]12C (some centres undefined)
Solution: 99.3

----------
Provide the recorded inhibition for the entries that follow.
target-entity: UniProt P00630
measurement-protocol: Inhibitory activity against bee secretory Phospholipase A2 enzyme when pre-incubated for 15 minutes
Answers are plain numbers, in %.

C=C1CCC[C@H]2[C@](C)(CCC3=CCC(C4=CC(=O)OC4O)OC3)[C@H](C)CC[C@]12C (some centres undefined) :: 93.7
CC(C)=CCC/C(C)=C/CC/C(C)=C/CC1=CCC(C2=CC(=O)OC2O)OC1 (centres undefined) :: 87.1
CC1=C(CC/C(C)=C/CCC2=CC[C@H](C3=CC(=O)O[C@H]3O)O[C@H]2O)C(C)(C)CCC1 :: 63.3

Problem: # inhibition lookup, item CC(C)=CCC/C(C)=C/CC/C(C)=C/CC1=CCC(C2=CC(=O)OC2O)OC1O (centres undefined)
Solution: 70.3

----------
Provide the recorded inhibition for the entries that follow.
target-entity: Phospholipase A2, membrane associated (Homo sapiens)
measurement-protocol: Inhibitory activity against human synovial Phospholipase at 10 uM
Numbers only, in %.

CC(C)=CCC/C(C)=C/CC/C(C)=C/CC1=CCC(C2=CC(=O)OC2O)OC1O (stereo unspecified) :: 74.6
O=C1C=C(C2CC=CC(O)O2)C(O)O1 (stereo unspecified) :: 18.9

Please report inhibition for every entry that follows.
1. O=C1C=C(C2CC=C(Cc3ccccc3)C(O)O2)C(O)O1 (stereo unspecified)
2. CC(C)=CCC/C(C)=C/CC/C(C)=C/CC1=CCC(C2=CC(=O)OC2O)OC1 (stereo unspecified)
3. C/C=C/CC1=CCC(C2=CC(=O)OC2O)OC1O (stereo unspecified)
4. O=C1C=C(C2CC=C(Cc3ccccc3)CO2)C(O)O1 (stereo unspecified)
5. C/C=C/CC1=CCC(C2=CC(=O)OC2O)OC1 (stereo unspecified)

Solution:
1. 11.9
2. 63.1
3. 21.2
4. 15.5
5. 24.8

Please report inhibition for every entry that follows.
1. CC1=CCC(C2=CC(=O)OC2O)OC1O (stereo unspecified)
2. CC1=C(CC/C(C)=C/CCC2=CC[C@H](C3=CC(=O)O[C@H]3O)O[C@H]2O)C(C)(C)CCC1
3. O=C1C=C(C2CC=CCO2)C(O)O1 (stereo unspecified)
4. CC1=CCC(C2=CC(=O)OC2O)OC1 (stereo unspecified)

Solution:
3.2
93.2
42.3
0.1

----------
Tested on: Phospholipase A2 (Naja naja)
measurement-protocol: Inhibitory activity against naja naja secretory Phospholipase A2 at 10 uM
run-conditions: snake
property: inhibition
Give the value; after it, write the unit.

CC1=CCC(C2=CC(=O)OC2O)OC1O (centres undefined) :: 3%

Please report inhibition for every entry that follows.
1. O=C1C=C(C2CC=C(Cc3ccccc3)C(O)O2)C(O)O1 (centres undefined)
2. O=C1C=C(C2CC=C(Cc3ccccc3)CO2)C(O)O1 (centres undefined)
3. O=C1C=C(C2CC=CC(O)O2)C(O)O1 (centres undefined)
4. C/C=C/CC1=CCC(C2=CC(=O)OC2O)OC1O (centres undefined)
5. O=C1C=C(C2CC=CCO2)C(O)O1 (centres undefined)
6. C/C=C/CC1=CCC(C2=CC(=O)OC2O)OC1 (centres undefined)

Solution:
7.1%
7.6%
5.2%
1.8%
10.1%
7.1%

Please report inhibition for every entry that follows.
1. CC(C)=CCC/C(C)=C/CC/C(C)=C/CC1=CCC(C2=CC(=O)OC2O)OC1O (centres undefined)
2. CC1=CCC(C2=CC(=O)OC2O)OC1 (centres undefined)

Solution:
1. 33.6%
2. 1.4%

----------
target-entity: Phospholipase A2 (Apis mellifera) (UniProt P00630)
Sequence (P00630 whole entry): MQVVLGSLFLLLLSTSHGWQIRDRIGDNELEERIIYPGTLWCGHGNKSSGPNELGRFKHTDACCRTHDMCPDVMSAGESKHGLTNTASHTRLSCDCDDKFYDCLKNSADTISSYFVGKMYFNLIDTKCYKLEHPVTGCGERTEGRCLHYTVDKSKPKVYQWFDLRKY
measurement-protocol: Inhibitory activity against bee secretory Phospholipase A2 enzyme when pre-incubated with Hydroxylamine for 5 minutes
Provide the recorded inhibition for the entries that follow.
Numbers only, in %.

Sample records with inhibition:
CC(C)=CCC/C(C)=C/CC/C(C)=C/CC1=CCC(C2=CC(=O)OC2O)OC1 (centres undefined) :: 50.1
CC1=C(CC/C(C)=C/CCC2=CC[C@H](C3=CC(=O)O[C@H]3O)O[C@H]2O)C(C)(C)CCC1 :: 21

Please report inhibition for every entry that follows.
1. CC(C)=CCC/C(C)=C/CC/C(C)=C/CC1=CCC(C2=CC(=O)OC2O)OC1O (centres undefined)
2. C=C1CCC[C@H]2[C@](C)(CCC3=CCC(C4=CC(=O)OC4O)OC3)[C@H](C)CC[C@]12C (some centres undefined)

Solution:
[39.1, 81.9]

----------
target-entity: Phospholipase A2 (Apis mellifera) (UniProt P00630)
measurement-protocol: Inhibitory activity against bee secretory Phospholipase A2 enzyme at 10 uM
Provide the recorded inhibition for the entries that follow.
One number for each entry, in %.

Please report inhibition for every entry that follows.
1. C/C=C/CC1=CCC(C2=CC(=O)OC2O)OC1O (stereo unspecified)
2. O=C1C=C(C2CC=CC(O)O2)C(O)O1 (stereo unspecified)
3. CC1=C(CC/C(C)=C/CCC2=CC[C@H](C3=CC(=O)O[C@H]3O)O[C@H]2O)C(C)(C)CCC1
4. O=C1C=C(C2CC=C(Cc3ccccc3)C(O)O2)C(O)O1 (stereo unspecified)
5. CC1=CCC(C2=CC(=O)OC2O)OC1 (stereo unspecified)
6. CC(C)=CCC/C(C)=C/CC/C(C)=C/CC1=CCC(C2=CC(=O)OC2O)OC1 (stereo unspecified)
7. C/C=C/CC1=CCC(C2=CC(=O)OC2O)OC1 (stereo unspecified)

Solution:
24.8
0.7
62.5
16.1
8
71.8
40.1

Please report inhibition for every entry that follows.
1. CC1=CCC(C2=CC(=O)OC2O)OC1O (stereo unspecified)
2. CC(C)=CCC/C(C)=C/CC/C(C)=C/CC1=CCC(C2=CC(=O)OC2O)OC1O (stereo unspecified)
3. O=C1C=C(C2CC=CCO2)C(O)O1 (stereo unspecified)
4. O=C1C=C(C2CC=C(Cc3ccccc3)CO2)C(O)O1 (stereo unspecified)

Solution:
[14.9, 84.2, 9.3, 30.3]

----------
Provide the recorded inhibition for the entries that follow.
target-entity: Phospholipase A2, major isoenzyme (Sus scrofa)
measurement-protocol: Inhibitory activity against Porcine pancreatic secretory Phospholipase A2 at 10 uM
Numbers only, in %.

O=C1C=C(C2CC=C(Cc3ccccc3)CO2)C(O)O1 (stereo unspecified) :: 17.4
CC1=CCC(C2=CC(=O)OC2O)OC1O (stereo unspecified) :: 6.8
CC1=C(CC/C(C)=C/CCC2=CC[C@H](C3=CC(=O)O[C@H]3O)O[C@H]2O)C(C)(C)CCC1 :: 32.3
O=C1C=C(C2CC=CCO2)C(O)O1 (stereo unspecified) :: 0.2
O=C1C=C(C2CC=CC(O)O2)C(O)O1 (stereo unspecified) :: 1

Please report inhibition for every entry that follows.
1. C/C=C/CC1=CCC(C2=CC(=O)OC2O)OC1 (stereo unspecified)
2. CC1=CCC(C2=CC(=O)OC2O)OC1 (stereo unspecified)
3. C/C=C/CC1=CCC(C2=CC(=O)OC2O)OC1O (stereo unspecified)
4. CC(C)=CCC/C(C)=C/CC/C(C)=C/CC1=CCC(C2=CC(=O)OC2O)OC1 (stereo unspecified)
5. O=C1C=C(C2CC=C(Cc3ccccc3)C(O)O2)C(O)O1 (stereo unspecified)
6. CC(C)=CCC/C(C)=C/CC/C(C)=C/CC1=CCC(C2=CC(=O)OC2O)OC1O (stereo unspecified)

Solution:
[17.6, 5.6, 15.1, 30, 16.1, 39.8]

----------
target-entity: Phospholipase A2 (Apis mellifera) (UniProt P00630)
measurement-protocol: Inhibitory activity against bee secretory Phospholipase A2 enzyme when pre-incubated with Tris buffer for 60 minutes
Provide the recorded inhibition for the entries that follow.
Numbers only, in %.

Please report inhibition for every entry that follows.
1. CC(C)=CCC/C(C)=C/CC/C(C)=C/CC1=CCC(C2=CC(=O)OC2O)OC1 (centres undefined)
2. CC1=C(CC/C(C)=C/CCC2=CC[C@H](C3=CC(=O)O[C@H]3O)O[C@H]2O)C(C)(C)CCC1
3. CC(C)=CCC/C(C)=C/CC/C(C)=C/CC1=CCC(C2=CC(=O)OC2O)OC1O (centres undefined)
4. C=C1CCC[C@H]2[C@](C)(CCC3=CCC(C4=CC(=O)OC4O)OC3)[C@H](C)CC[C@]12C (some centres undefined)

Solution:
[65.3, 47.3, 75.2, 98.4]
